Reference source: the supplement of paper PMC10567573

The variants listed here are annotated with their protein stability index.
B1: FBF1 (parent)
chain: LQRASILDMRRDHEEQLQRLKLLK

- Variants of: B1
- Assay overview: protein stability index of a GFP-peptide fusion (GPS, HEK-293T) (PSI 1-6); higher = more stable;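 further: lentivirally expressed fusions sorted by FACS into six bins by GFP to DsRed ratio, PSI derived from sequencing read proportions per bin multiplied by bin number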
- Applied conditions: c terminus: a fixed tail appended

Variant notation: R11I
protein stability index: 2.98
--
Variant notation: E14S
protein stability index: 2.95
--
Variant notation: Q2F
protein stability index: 3

Now take the following variant into account.
IN: Answer with the recorded protein stability index of K21I only.
OUT: 2.96
